# measured.target: ERβ (Homo sapiens, UniProt Q92731)
# Sequence (Q92731 whole entry): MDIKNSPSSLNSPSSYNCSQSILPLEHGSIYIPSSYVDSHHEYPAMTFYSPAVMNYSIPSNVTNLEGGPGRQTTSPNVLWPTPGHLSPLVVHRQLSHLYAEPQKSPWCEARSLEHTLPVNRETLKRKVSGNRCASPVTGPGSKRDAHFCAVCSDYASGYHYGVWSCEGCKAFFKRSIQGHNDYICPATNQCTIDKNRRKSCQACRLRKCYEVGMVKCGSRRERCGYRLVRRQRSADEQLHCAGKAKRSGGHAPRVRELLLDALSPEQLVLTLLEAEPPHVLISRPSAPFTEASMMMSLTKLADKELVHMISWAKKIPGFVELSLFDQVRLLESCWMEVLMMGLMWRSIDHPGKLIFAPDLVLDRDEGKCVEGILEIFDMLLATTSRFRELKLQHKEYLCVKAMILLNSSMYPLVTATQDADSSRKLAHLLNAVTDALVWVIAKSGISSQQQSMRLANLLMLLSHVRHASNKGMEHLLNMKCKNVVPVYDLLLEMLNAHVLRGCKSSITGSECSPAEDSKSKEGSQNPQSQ
# test.summary: Luciferase reporter gene assay in HeLa cells, antagonistic activity against 10 nM E2
# Format: cell-based
# Parameters: expressed in transfected cells; host or cells: HeLa
# experimental.parameters: against 10 nM E2-induced ERβ activation; 100 nM, 1 μM, 10 μM
attribute.measured: ERβ antagonist activity (in words)

# example entries with known answers
Reported ERβ antagonist activity (in words) for CC(C)(c1ccc(O)cc1)c1cccc(C(C)(C)c2ccc(O)cc2)c1 [Compound 10] : what is it?
antagonistic activity

Reported ERβ antagonist activity (in words) for Oc1ccc(C(c2ccc(O)cc2)C(Cl)(Cl)Cl)cc1 [Compound 3] : what is it?
antagonistic activities

Reported ERβ antagonist activity (in words) for CC(C)(c1ccc(O)cc1)c1ccc(C(C)(c2ccc(O)cc2)c2ccc(O)cc2)cc1 [Compound 12] : what is it?
antagonistic activity

Reported ERβ antagonist activity (in words) for Cc1cc(C(C)(C)c2ccc(C(C)(C)c3cc(C)c(O)c(C)c3)cc2)cc(C)c1O [Compound 20] : what is it?
antagonistic activity

Reported ERβ antagonist activity (in words) for Oc1ccc(C(c2ccc(O)cc2)(C(F)(F)F)C(F)(F)F)cc1 [Compound 4, 4,4'-(perfluoropropane-2,2-diyl)diphenol] : what is it?
antagonistic activities

The record that follows has no ERβ antagonist activity (in words) shown yet.
Reported ERβ antagonist activity (in words) for CC(C)(c1ccc(O)cc1)c1ccc(C(C)(C)c2ccc(O)cc2)cc1 [Compound 16] : what is it?
antagonistic activity
